The measurements presented in this section are drawn from paper PMC7824571.

The compounds listed here are annotated with their fraction unbound at 20 h, 1 μM.
Protocol text: in vitro
Setup conditions: zebrafish, zebrafish embryo homogenate (1:20 in MilliQ water)

| Structure notation | Result |
| --- | --- |
| Clc1ccc(Nc2nnc(Cc3ccncc3)c3ccccc23)cc1 | 0.0995 |

Now consider the entry below.
**Q:** May I ask what fraction unbound at 20 h, 1 μM has been recorded for "CCN1CCN(c2ccc(Nc3cc(N(C)C(=O)Nc4c(Cl)c(OC)cc(OC)c4Cl)ncn3)cc2)CC1" ?
**A:** 0.0497

----------
Protocol text: Binding to mouse plasma protein
Setup conditions: %Fu-PPB, free unbound
Reported metric: fraction unbound

| Structure notation | Reported metric | Result |
| --- | --- | --- |
| CCN1CCN(c2ccc(Nc3cc(N(C)C(=O)Nc4c(Cl)c(OC)cc(OC)c4Cl)ncn3)cc2)CC1 | fraction unbound | 0.013 |

Continue with the next compound.
**Q:** Which fraction unbound is listed for "Clc1ccc(Nc2nnc(Cc3ccncc3)c3ccccc23)cc1" ?
**A:** 0.041

----------
Protocol text: Binding to mouse plasma protein
Setup conditions: %PPB-Mouse (plasma protein binding)
Reported metric: fraction unbound
Format: numeric value only, no unit, no commentary.

| Compound | fraction unbound |
| --- | --- |
| CCN1CCN(c2ccc(Nc3cc(N(C)C(=O)Nc4c(Cl)c(OC)cc(OC)c4Cl)ncn3)cc2)CC1 [infigratinib] | 0.013 |

**Q:** Which fraction unbound value is on record for Clc1ccc(Nc2nnc(Cc3ccncc3)c3ccccc23)cc1 [vatalanib] ?
**A:** 0.0413
